Data credit: the supplement of paper PMC8882468

Listed next: entries and their corresponding CTG-3D luminescence at 96 h.
test system: HCI-001 (organoid from a triple-negative breast cancer xenograft); assay: CTG-3D luminescence at 96 h relative to day-0 seeding control (ratio to day 0); higher = more growth / less cytotoxicity; PDxO 3D drug screen, 96 h, CTG-3D normalised to day-0 seeding control.; conditions: 0.005 µM; days in culture: 364
quantity measured: CTG-3D luminescence at 96 h

>>> observed_result("CS(=O)(=O)c1ccc(C(=O)Nc2ccc(Cl)c(-c3ccccn3)c2)c(Cl)c1")
1.67
>>> observed_result("C=CCn1c(=O)c2cnc(Nc3ccc(N4CCN(C)CC4)cc3)nc2n1-c1cccc(C(C)(C)O)n1")
1.37
>>> observed_result("Cc1cc(Nc2ncc(Cl)c(Nc3ccccc3S(=O)(=O)C(C)C)n2)c(OC(C)C)cc1C1CCNCC1")
1.4
>>> observed_result("C[C@]12CC[C@@H]3c4ccc(O)cc4C[C@@H](CCCCCCCCC[S+]([O-])CCCC(F)(F)C(F)(F)F)[C@H]3[C@@H]1CC[C@@H]2O (some centres undefined)")
1.37

====

tested on: HCI-008 (organoid from a HER2-enriched breast cancer xenograft); assay: CTG-3D luminescence at 96 h relative to day-0 seeding control (ratio to day 0); higher = more growth / less cytotoxicity; PDxO 3D drug screen, 96 h, CTG-3D normalised to day-0 seeding control.; conditions: 12.5 pM; days in culture: 244
quantity measured: CTG-3D luminescence at 96 h

>>> observed_result("CC[C@H](NC(=O)[C@H](C)NC)C(=O)N1C[C@@H](O)C[C@H]1Cc1c(-c2[nH]c3cc(F)ccc3c2C[C@@H]2C[C@H](O)CN2C(=O)[C@H](CC)NC(=O)[C@H](C)NC)[nH]c2cc(F)ccc12")
1.27
>>> observed_result("NC(=O)Nc1cc(-c2cccc(F)c2)sc1C(=O)N[C@H]1CCCNC1")
1.39
>>> observed_result("NC1(C(=O)N[C@@H](CCO)c2ccc(Cl)cc2)CCN(c2nc[nH]c3nccc2-3)CC1")
1.6
>>> observed_result("NC(=O)c1cccc2cn(-c3ccc([C@@H]4CCCNC4)cc3)nc12")
1.42
>>> observed_result("COc1cc2c(Oc3ccc4[nH]c(C)cc4c3F)ncnc2cc1OCCCN1CCCC1")
1.25
>>> observed_result("CCN(c1cc(C#CCN2CCOCC2)cc(C(=O)NCc2c(C)cc(C)[nH]c2=O)c1C)[C@H]1CC[C@H](N(C)CCOC)CC1")
1.38
>>> observed_result("C/C=C1\\NC(=O)[C@H]2CSSCC/C=C/[C@H](CC(=O)N[C@H](C(C)C)C(=O)N2)OC(=O)[C@H](C(C)C)NC1=O")
1.41

====

system: HCI-002 (organoid from a triple-negative breast cancer xenograft); experiment: CTG-3D luminescence at 96 h relative to day-0 seeding control (ratio to day 0); higher = more growth / less cytotoxicity; PDxO 3D drug screen (set 2), 96 h, CTG-3D normalised to day-0 seeding control.; conditions: 12.5 pM; days in culture: 168
quantity measured: CTG-3D luminescence at 96 h

>>> observed_result("CO[C@H]1C[C@@H]2CC[C@@H](C)[C@@](O)(O2)C(=O)C(=O)N2CCCC[C@H]2C(=O)O[C@H]([C@H](C)C[C@@H]2CC[C@@H](O)[C@H](OC)C2)CC(=O)[C@H](C)/C=C(\\C)[C@@H](O)[C@@H](OC)C(=O)[C@H](C)C[C@H](C)/C=C/C=C/C=C/1C")
2.98
>>> observed_result("CS(=O)(=O)CCNCc1ccc(-c2ccc3ncnc(Nc4ccc(OCc5cccc(F)c5)c(Cl)c4)c3c2)o1")
3.63
>>> observed_result("O=C(c1cc(Cc2n[nH]c(=O)c3ccccc23)ccc1F)N1CCN(C(=O)C2CC2)CC1")
3.4
>>> observed_result("COc1cccc2c1C(=O)c1c(O)c3c(c(O)c1C2=O)C[C@@](O)(C(=O)CO)C[C@@H]3O[C@H]1C[C@H](N)[C@@H](O)[C@H](C)O1 [epirubicin]")
3.2
